test system: EKVX NSCLC; test: NCI tumour cell line growth inhibition, 48 h
*1 amine or outer side, *2 acyl side, *3 side chain or, on linkers, in order; H or OH if unused. Where a SMILES comes first, the peptide text is derived from it. [ ]: non-standard residue; d: D form. The star is where a group is joined. X31 = CC(=O)N(C)SCC(N[*:1])C(=O)[*:2]; Cbz = O=C(OCc1ccccc1)*; Bn = c1ccc(C*)cc1
# reported TGI; entries follow

Give the measured TGI of O=C(COC(=O)c1cccc2c(=O)c3ccccc3[nH]c12)Nc1ccc(C(=O)O)cc1 .
> 100 µM

Give the measured TGI of CC(=O)N(C)SCC(NC(=O)C(Cc1ccccc1)NC(=O)OCc1ccccc1)C(=O)NC(Cc1ccccc1)C(=O)NC(Cc1c[nH]c2ccccc12)C(=O)NC(CCCCNC(=O)OCc1ccccc1)C(=O)NC(C(=O)NC(CSN(C)C(C)=O)C(=O)NC(C(N)=O)C(C)OCc1ccccc1)C(C)OCc1ccccc1 (centres undefined) (Cbz-F[X31]FWK(Cbz)T(Bn)[X31]T(Bn)-NH2; configuration not given here) .
> 100 µM

Give the measured TGI of COC(=O)C(C/C=C(\C)c1ccc(Cl)cc1)C(C)=O (centres undefined) .
> 100 µM
